System: collagenase;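 note: nutrient agar containing 0.5% Azocoll with inhibitor, topped by a fresh hide piece, kept at 30 °C, collagenase from hide bacteria scored visually as clearing zone around growth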
Conditions: Conc. 0.2%, day 2
reported_property: Collagenase Activity/Days 2
Respond with the number and no other words.

Consider the following illustrative entries.
# item_smiles, measured_target, measurement
rows = [
    ("O=C(O)CN(CCOCCOCCN(CC(=O)O)CC(=O)O)CC(=O)O", "collagenase", 0),
    ("O=C([O-])CN(CCN(CC(=O)[O-])CC(=O)O)CC(=O)[O-].[Na+].[Na+].[Na+]", "collagenase", 0),
]

Now examine the next entry.
Bench note: what Collagenase Activity/Days 2 did O=C([O-])CN(CCN(CC(=O)O)CC(=O)O)CC(=O)[O-].[Na+].[Na+] show?
0

Source listed as patent US20060112494A1.
